Target: T1, human NMI (N-myc Interacting protein), recombinant protein (human, UniProt Q13287 1-307, limits assumed)
T1 construct: Gene ID: 9111; also called hNMI; antigen
T1 sequence (looked up): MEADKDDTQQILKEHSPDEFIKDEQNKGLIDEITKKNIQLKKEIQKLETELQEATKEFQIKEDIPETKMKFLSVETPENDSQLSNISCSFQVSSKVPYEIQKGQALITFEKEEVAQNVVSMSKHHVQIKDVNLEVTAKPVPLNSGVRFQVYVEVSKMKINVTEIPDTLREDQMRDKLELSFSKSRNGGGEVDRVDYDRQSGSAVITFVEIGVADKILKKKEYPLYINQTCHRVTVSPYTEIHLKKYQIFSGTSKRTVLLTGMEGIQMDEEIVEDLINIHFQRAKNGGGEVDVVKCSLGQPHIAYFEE
Experiment: sandwich ELISA; detection 94C4-1-biotin 0.5µg/mL; hNMI 195.313 pg/mL
Listing of recorded OD450 by entry.
Write the number in OD450 without appending the unit.

Worked cases, OD450 given:
* monoclonal antibody 240B10-1 (antibody, V domains shown, Rabbit monoclonal antibody) VH: QSLEESGGRLVTPGGSLTLTCTVSGIDLSSYTMGWVRQAPGKGLEYIGIISGGGRTYYASWAKGRFTISKTSSTTVDLKVTSLTTEDTATYFCARIYTLWGQGTLVTVSS VL: QVLTQTLASVSAAVGGTVTINCQSSQSVYNNDYLAWFQQKSGQPPKQLIHSASKLASGVPSRFKGSGSGTQFTLTINDVQCDDAATYYCLGGYDCYSADCNVFGGGTEVVVK | 0.187
* monoclonal antibody 39B4 (antibody, V domains shown, Rabbit monoclonal antibody; also called 39B4-1) VH: QEQLVESGGGLVQPEGSLTLTCTASGFSFSSSYWICWVRQAPGKGLEWIACIYAGTSGSTYYASWAKGRFTISKTSSTTVDLQMNSLTAADTATYFCARAGYYTYGAGVYIYPSSFKLWGPGTLVTVSS VL: DVVMTQTPASVEAAVGGTVTIKCQASESIGNALAWYQQKPGQPPKLLIYSASNLASGVPSRFSGSGSGTQFTLTISDLECADAATYYCQSYYYSSSSITFGGGTEVVVK | 0.179
* monoclonal antibody B-8 (antibody, V domains shown, Rabbit monoclonal antibody; also called B8-1) VH: QSLEESGGDLVKPGASLTLTCTASGFSFSSSYYMCWVRQAPGKGLEWIACIYAGSSGSTYYASWAKGRFTISKTSSTTVTLQMTSLTAADTATYFCAREYSYDDYGDFWGFNLWGPGTLVTVSS VL: ALVMTQTPSSVSAAVGGTVTINCQASQNIYTNLAWYQQKPGQPPKLLIYGASNLESGVPSRFKGSGSGTEYTLTISDLECDDAATYYCQSSLYSRIADRANAFGGGTEVVVK | 0.134

Please examine the following record next.
Task: What OD450 value was documented for this binder, monoclonal antibody 98G10 (antibody, V domains shown, Rabbit monoclonal antibody) VH: QEQLEESGGDLVKPEGSLTLTCTASGFSFSASYWICWVRQAPGKGLEWIACIYGGSSGSAYYASWAKGRFTISKTSSTTVTLQMTSLTAADTATYFCARAGYYNYGSAGDIYPSSFKLWGPGTLVTVSS VL: DIVMTQTPASVEAAVGGTVTINCQASQSISTALAWYQQKPGQPPKLLIYTASKVASGVPSRFSGSGSGTQFTLTISDLECADAATYYCQNYYYSSSSITFGGGTEVVVK ?
Output: 0.159
